Assay: Pharmacokinetic study in SD rats after intragastric administration of pro-EGCG, plasma by UPLC-Qtof-MS
Assay type: in vivo, Sprague Dawley (SD) rats
Details: female, Sprague-Dawley, rat, plasma; oral administration, SD rats, 50 mg/kg pro-EGCG; read-out: area-under-curve (AUC)
Method: Fourteen to 16-weeks old female Sprague Dawley (SD) rats at reproductive age and of approximately 250 g were grouped in different cages in an air-conditioned room (22 ± 2°C) with a 12-h controlled lighting cycle. The SD rats were fed with standard chow and given free access to water. They were acclimatized for 1 week before the experiment. […] Plasma extract was analyzed by Agilent 6,540 Liquid chromatography-electrospray ionization quadrupole-TOF Mass Spectrometer. […]
property measured: AUC
Be sure to follow the number with its unit.

# molecule CC(=O)Oc1cc(OC(C)=O)c2c(c1)O[C@H](c1cc(OC(C)=O)c(OC(C)=O)c(OC(C)=O)c1)[C@H](OC(=O)c1cc(OC(C)=O)c(OC(C)=O)c(OC(C)=O)c1)C2 [pro-EGCG, (-)-Epigallocatechin-gallate octaacetate] ; its AUC = 200 ng·h/mL

* * *

Assay: Pharmacokinetic study in SD rats after intragastric administration of pro-EGCG, plasma by UPLC-Qtof-MS
Type: in vivo, Sprague Dawley (SD) rats
Conditions: female, Sprague-Dawley, rat, plasma, po, 50 mg/kg, SD rats (n = 3), plasma, within 24 h after intragastric 50 mg/kg pro-EGCG; Mean ± SE; read-out: Tmax
property measured: Tmax (h)
# unit: h | format: bare number

# molecule CC(=O)Oc1cc(OC(C)=O)c2c(c1)O[C@H](c1cc(OC(C)=O)c(OC(C)=O)c(OC(C)=O)c1)[C@H](OC(=O)c1cc(OC(C)=O)c(OC(C)=O)c(OC(C)=O)c1)C2 [pro-EGCG, (-)-Epigallocatechin-gallate octaacetate] ; its Tmax = 1.33

* * *

Experiment: Pharmacokinetic study in SD rats after intragastric administration of pro-EGCG, plasma by UPLC-Qtof-MS
Format: in vivo, Sprague Dawley (SD) rats
Settings: female, Sprague-Dawley, rat, po; SD rats (n = 3), plasma, within 24 h after intragastric 50 mg/kg pro-EGCG; Mean ± SE
property measured: Cmax (ng/mL)
# unit: ng/mL | format: bare number

# compound CC(=O)Oc1cc(OC(C)=O)c2c(c1)O[C@H](c1cc(OC(C)=O)c(OC(C)=O)c(OC(C)=O)c1)[C@H](OC(=O)c1cc(OC(C)=O)c(OC(C)=O)c(OC(C)=O)c1)C2 [pro-EGCG, (-)-Epigallocatechin-gallate octaacetate] ; its Cmax = 67

* * *

Assay: Pharmacokinetic study in SD rats after intragastric administration of pro-EGCG, plasma by UPLC-Qtof-MS
Type: in vivo, Sprague Dawley (SD) rats
Details: female, Sprague-Dawley, rat, po; SD rats (n = 3), plasma, within 24 h after intragastric 50 mg/kg pro-EGCG; Mean ± SE; read-out: Lambda Z (converted)
property measured: k el (s⁻¹)
# unit: s⁻¹ | format: bare number

# compound CC(=O)Oc1cc(OC(C)=O)c2c(c1)O[C@H](c1cc(OC(C)=O)c(OC(C)=O)c(OC(C)=O)c1)[C@H](OC(=O)c1cc(OC(C)=O)c(OC(C)=O)c(OC(C)=O)c1)C2 [pro-EGCG, (-)-Epigallocatechin-gallate octaacetate] ; its k el = 5.56e-05

* * *

Test: Pharmacokinetic study in SD rats after intragastric administration of pro-EGCG, plasma by UPLC-Qtof-MS
Assay type: in vivo, Sprague Dawley (SD) rats
Details: female, Sprague-Dawley, oral, 50 mg/kg; non-compartmental analysis, rat plasma (n = 3) over 24 h
property measured: Cmax (ng/mL)
# unit: ng/mL | format: bare number

# compound CC(=O)Oc1cc(OC(C)=O)c2c(c1)O[C@H](c1cc(OC(C)=O)c(OC(C)=O)c(OC(C)=O)c1)[C@H](OC(=O)c1cc(OC(C)=O)c(OC(C)=O)c(OC(C)=O)c1)C2 [pro-EGCG, (-)-Epigallocatechin-gallate octaacetate] ; its Cmax = 67
